- assayedSystem: Serine/threonine-protein phosphatase 2A catalytic subunit alpha isoform (Homo sapiens, UniProt P67775)
- Sequence (P67775 whole entry, looked up, canonical isoform): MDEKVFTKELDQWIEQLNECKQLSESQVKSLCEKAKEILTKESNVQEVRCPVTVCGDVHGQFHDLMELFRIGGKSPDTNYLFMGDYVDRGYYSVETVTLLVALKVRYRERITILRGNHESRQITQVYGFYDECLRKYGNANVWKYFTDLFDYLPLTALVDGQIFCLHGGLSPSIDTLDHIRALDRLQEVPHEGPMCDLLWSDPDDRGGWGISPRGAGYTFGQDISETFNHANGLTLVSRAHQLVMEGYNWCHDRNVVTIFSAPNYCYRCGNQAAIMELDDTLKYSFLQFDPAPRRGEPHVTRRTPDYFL
- experimentNotes: Inhibition of recombinant human PP2A catalytic subunit L309 deletion mutant using DIFMUP as substrate pretreated for 10 mins followed by substrate addition measured every 15 secs for 30 mins by fluorescence assay
pIC50: −log10 of the molar value.
quantityKind: pIC50

- querySmiles: "CC(C)C[C@@H]1NC(=O)[C@@H](C)NC(=O)CN(C)C(=O)CC[C@H](C(=O)O)NC(=O)[C@@H](C)[C@H](C)NC(=O)[C@H](Cc2ccccc2)NC(=O)C[C@H](C(=O)O)NC1=O"
  quantityKind: "pIC50"
  experimentalValue: 6.05
